testSystem: human serum albumin (HSA) (Homo sapiens)
Sequence (P02768 25-609): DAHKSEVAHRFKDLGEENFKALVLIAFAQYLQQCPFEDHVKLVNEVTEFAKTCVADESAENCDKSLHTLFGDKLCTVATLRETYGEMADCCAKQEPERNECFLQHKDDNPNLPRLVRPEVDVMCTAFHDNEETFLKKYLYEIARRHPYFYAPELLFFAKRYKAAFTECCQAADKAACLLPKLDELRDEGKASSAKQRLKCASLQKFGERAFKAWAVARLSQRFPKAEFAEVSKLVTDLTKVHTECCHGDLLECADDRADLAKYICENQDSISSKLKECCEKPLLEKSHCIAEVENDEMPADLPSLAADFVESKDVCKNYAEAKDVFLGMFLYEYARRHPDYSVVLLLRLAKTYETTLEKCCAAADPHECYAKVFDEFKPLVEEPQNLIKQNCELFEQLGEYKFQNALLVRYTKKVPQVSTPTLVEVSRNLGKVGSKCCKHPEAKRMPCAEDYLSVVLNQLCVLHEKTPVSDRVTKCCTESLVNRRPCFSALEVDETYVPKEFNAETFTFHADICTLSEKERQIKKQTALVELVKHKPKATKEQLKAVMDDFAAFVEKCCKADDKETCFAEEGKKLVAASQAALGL
experimentNotes: Circular dichroism spectrum, secondary structure (α-helix content) of HSA
conditionsUsed: 10:1 (Pesticide:HSA), HSA 2×10^−6 M
Exercise: for every item that follows, state its recorded α-helix contents.
Write it as a number; the unit % goes unstated.

Ask | Any idea what α-helix contents was measured for CNC(=O)O/N=C(\C)C(C)S(C)(=O)=O (stereo not shown) ?
Reply | 52.790

Ask | Any idea what α-helix contents was measured for CNC(=O)Oc1cc(C)cc(C(C)C)c1 ?
Reply | 48.538

Ask | Any idea what α-helix contents was measured for CNC(=O)ON=C(CSC)C(C)(C)C ?
Reply | 48.180

Ask | Any idea what α-helix contents was measured for CNC(=O)Oc1ccc(N(C)C)c(C)c1 ?
Reply | 49.082

Provenance of the data: patent US12385839B2
